Molecular target: recombinant human pancreatic GLK (Homo sapiens, UniProt P35557)
Sequence (P35557 1-465): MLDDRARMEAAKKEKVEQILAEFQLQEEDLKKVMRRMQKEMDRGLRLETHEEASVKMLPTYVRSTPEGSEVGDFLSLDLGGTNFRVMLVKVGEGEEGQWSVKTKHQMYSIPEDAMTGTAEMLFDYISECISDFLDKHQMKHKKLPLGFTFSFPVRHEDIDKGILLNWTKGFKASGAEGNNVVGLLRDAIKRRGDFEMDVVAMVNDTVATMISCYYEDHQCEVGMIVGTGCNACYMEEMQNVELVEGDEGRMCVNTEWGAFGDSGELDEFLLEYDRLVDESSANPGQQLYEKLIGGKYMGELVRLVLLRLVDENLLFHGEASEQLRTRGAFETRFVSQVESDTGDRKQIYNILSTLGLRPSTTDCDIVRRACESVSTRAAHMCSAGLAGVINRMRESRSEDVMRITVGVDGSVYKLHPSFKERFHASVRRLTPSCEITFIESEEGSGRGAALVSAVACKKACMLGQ
Assay: biochemical
Reported Endpoint: EC50
Answer format: value, then unit.

INPUT: Indicate its recorded EC50; the compound in question is COC[C@H](C)Oc1cc(OCc2ccccc2)cc(-c2cc3cccnc3[nH]2)c1 [Example 1]
OUTPUT: 120 nM
